pIC50: −log10 of the molar value.
Before we begin, note that these pIC50 values for Apoptosis regulator Bcl-2 (Homo sapiens, UniProt P10415) originate from several publications.
measure: pIC50

>  <compound>
CN(C)CC[C@H](CSc1ccccc1)Nc1ccc(S(=O)(=O)NC(=O)c2ccc(N3CCN(c4cccc(-c5c(-c6ccc(Cl)cc6)cn(CC[C@H](O)CO)c5C(=O)NCCCN5CCN(C)CC5)c4)CC3)cc2)cc1[N+](=O)[O-]

>  <pIC50>
8.06

$$$$
>  <compound>
O=C(NS(=O)(=O)c1ccc(N[C@H](CCN2CCOCC2)CSc2ccccc2)c(S(=O)(=O)C(F)(F)F)c1)c1cnc(N2CCN(Cc3ccccc3-c3ccc(Cl)cc3)CC2)nc1

>  <pIC50>
7.74

$$$$

1. CCN1CCC(COc2ccc(S(=O)(=O)NC(=O)c3ccc(N4CCN(CC5=C(c6ccc(C(F)(F)F)cc6)CC(C)(C)CC5)CC4)cc3Oc3cnc4[nH]ccc4c3)cc2[N+](=O)[O-])CC1
2. CN(C)CC[C@H](CSc1ccccc1)Nc1ccc(S(=O)(=O)Nc2ccc(N3CCN(c4cccc(-c5c(C(=O)NS(C)(=O)=O)cnn5-c5ccc(Cl)cc5)c4)CC3)cc2)cc1[N+](=O)[O-]
Would you let me know which has the greater pIC50 value, 1 or 2 ? Provide the label of your selected option as the answer.
1

P. C[C@H]1[C@@H](CC(=O)N2CCN(c3ccc(C(=O)NS(=O)(=O)c4ccc(NCC5CCOCC5)c([N+](=O)[O-])c4)c(Oc4cnc5[nH]ccc5c4)c3)CC2)O[C@@H]2O[C@@]3(C)CC[C@H]4[C@H](C)CC[C@@H]1[C@@]24O3
Q. CCOC(=O)C1(Cc2ccccc2-c2ccc(Cl)cc2)CCN(c2ccc(C(=O)NS(=O)(=O)c3ccc(N[C@H](CCN4CCOCC4)CSc4ccccc4)c(S(=O)(=O)C(F)(F)F)c3)cc2)CC1
Would you let me know which has the greater pIC50 value, P or Q ? Provide the label of your selected option as the answer.
P

P. CN(C)CC[C@H](CSc1ccccc1)Nc1ccc(S(=O)(=O)Nc2ccc(N3CCN(c4cccc(-c5cnoc5-c5ccc(Cl)cc5)c4)CC3)cc2)cc1[N+](=O)[O-]
Q. CCCCc1c(-c2ccc(C(=O)NS(=O)(=O)c3ccc4ccccc4c3)cc2C(=O)N2CCc3ccccc3C2)c(C(=O)OCC)nn1-c1cccc(Oc2ccccc2)c1
R. CCCCN(CCCC)C(=O)c1nn(-c2ccc(C(=O)NS(=O)(=O)c3ccc4ccccc4c3)cc2C(=O)N2Cc3ccccc3C[C@H]2CN2CCOCC2)c(C)c1Cl
S. Cc1c(Cl)c(C(=O)NCc2ccc(-c3ccc(CC(=O)O)cc3)cc2)nn1-c1ccc(C(=O)NS(=O)(=O)c2ccc3c(c2)CCN3Cc2ccc(Cl)c(Cl)c2)cc1C(=O)N1CCc2ccccc2C1
T. O=C(CCCCC(=O)NCCN1C(=O)c2cccc3c(Sc4ccc(Br)cc4)ccc(c23)C1=O)NCCCCNc1cccc2c1C(=O)N(C1CCC(=O)NC1=O)C2=O (stereo not given)
Rank ascending by pIC50. Write the labels in rank order as requested.
T, P, Q, S, R
(T: 5.00, P: 6.46, Q: 6.85, S: 7.30, R: 7.85)

I. Cc1cc2c(c(O)c1-c1c(C)cc3c(c1O)/C(=C/NCCCCC(=O)O)C(=O)C(O)=C3C(C)C)/C(=C/NCCCCC(=O)O)C(=O)C(O)=C2C(C)C
II. Cc1c(Cl)c(-c2cccc(N3CCN(c4ccc(NS(=O)(=O)c5ccc(N[C@H](CCN(C)C)CSc6ccccc6)c([N+](=O)[O-])c5)cc4)CC3)c2)c(-c2ccc(Cl)cc2)n1C
Would you let me know which has the greater pIC50 value, I or II ? Provide the label of your selected option as the answer.
II
